# Test system: human alpha-1 adrenergic receptor (hα1)
# test: [3H]prasozin binding to human alpha-1 adrenergic receptor (transfected HEK 293 cell membranes)
# cond: HEK 293 cells transfected with hα1
Where a name gives a salt, the structure may show the parent alone.
metric-name: Ki (nM)
Answer in nM, number only, no unit symbol.

{"compound": "FC(F)(F)c1cccc(N2CCN(CCCCNc3cc(-c4ccccc4)ccn3)CC2)c1 [Example 4, dihydrochloride]", "Ki [nM]": 162}

Please look at the following compound next.
-- ask Please report the recorded Ki for Clc1cccc(N2CCN(CCCCNc3cc(-c4ccccc4)ccn3)CC2)c1Cl .
-- reply 136

Source: patent US7432269B2
